Experimental System: glucosylceramide synthase (GCS) (Homo sapiens (Human), UniProt Q16739)
Sequence (Q16739 whole entry): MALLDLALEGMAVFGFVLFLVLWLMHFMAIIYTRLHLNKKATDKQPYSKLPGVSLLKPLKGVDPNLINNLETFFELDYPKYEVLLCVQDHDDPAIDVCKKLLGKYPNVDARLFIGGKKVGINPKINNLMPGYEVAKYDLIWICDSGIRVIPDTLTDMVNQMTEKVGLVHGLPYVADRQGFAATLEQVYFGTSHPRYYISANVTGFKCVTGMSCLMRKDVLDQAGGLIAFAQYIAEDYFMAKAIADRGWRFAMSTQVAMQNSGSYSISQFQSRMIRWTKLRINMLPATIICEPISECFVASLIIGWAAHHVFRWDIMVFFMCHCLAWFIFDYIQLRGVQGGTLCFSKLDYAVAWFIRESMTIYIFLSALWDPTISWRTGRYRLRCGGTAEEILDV
Test Name: UDP-Glo glucosylceramide synthase biochemical assay
Settings: endogenous GCS in Golgi preparations from human A375 malignant melanoma skin cells; C6 ceramide and UDP-glucose substrates; 20 h incubation; UDP detected by luminescence
pEC50: −log10 of the molar value.
Readout Type: pEC50

Illustrative cases are given below, each with its answer.
Molecule	Experimental System	pEC50
CC(CO)(NC(=O)c1cn2cccc(-c3ccccc3OCC(F)(F)F)c2n1)C(F)(F)F (single isomer, unassigned) [Compound 9]	glucosylceramide synthase (GCS) (Homo sapiens (Human), UniProt Q16739)	8.64
COCC(C)(C)NC(=O)c1cn2cccc(-c3ccccc3OCC(F)(F)F)c2n1	glucosylceramide synthase (GCS) (Homo sapiens (Human), UniProt Q16739)	7.42
O=C(Nc1ccc2cccc(-c3ccccc3OCC(F)(F)F)c2n1)[C@H]1C[C@H](O)C1	glucosylceramide synthase (GCS) (Homo sapiens (Human), UniProt Q16739)	8.52
CC(C)(C)NC(=O)c1cn2cc(F)cc(-c3ccccc3OCC(F)(F)F)c2n1	glucosylceramide synthase (GCS) (Homo sapiens (Human), UniProt Q16739)	8.24
O=C(c1cn2cccc(-c3ccccc3OCC(F)(F)F)c2n1)N1CC2CC1(CF)C2	glucosylceramide synthase (GCS) (Homo sapiens (Human), UniProt Q16739)	8.35

A: O=C(Nc1cccnc1)c1cn2cc(F)cc(-c3ccccc3OCC(F)(F)F)c2n1
B: CC(C)(C#N)CNC(=O)c1cn2cc(Cl)cc(-c3ccccc3OCC(F)(F)F)c2n1
C: O=C(NC1(CO)CCCC1)c1cn2cccc(-c3ccccc3OCC(F)(F)F)c2n1
Ask | Arrange these 3 molecules in increasing order of pEC50. Record the ranking as a list of labels in the requested order.
Reply | C, B, A
(C: 7.96, B: 8.35, A: 10.08)
